# Tested on: MCF7
# test-name: Antiproliferative activity against human MCF7 cells after 48 hrs by MTT assay
# Type: functional, cell-based
# condition: MCF7, 48 h
property: IC50 (µg/mL)

- smi: "Cc1ccc(-c2nnc(NC(=O)/C=C/c3ccc(F)cc3)s2)cc1"
  unit-annotation: "µg/mL"
  IC50: 1.27
- smi: "O=C(/C=C/c1ccc(F)cc1)Nc1nnc(-c2ccc(Cl)cc2)s1"
  unit-annotation: "µg/mL"
  IC50: 1.58
- smi: "O=C(/C=C/c1ccc(F)cc1)Nc1nnc(-c2ccc(Br)cc2)s1"
  unit-annotation: "µg/mL"
  IC50: 1.49
